Assay: growth inhibitors of H69AR lung tumor, primary screen, human, duplicate replicates (AID 580);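 note: 100% = mean luminescence of untreated wells and 0% = no signal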
Details: H69AR lung tumor cells viability, ATP luminescence, 72 h; at 10 µM; hits give low values
Active and inactive are the calls of the source.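 Rule for the calls: active = viability at or under a set limit in both replicates, limit being median viability minus 3 SD (cut at about 48% in these data, passing the limit was not always enough); inconclusive = at or under the limit in just one replicate; inactive = at or above the limit in both replicates.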
Endpoint name: viability

# Molecule, viability
data = [
    ("O=C(Nc1ccc2c(c1)OCCO2)c1ccco1", "86.5% (inactive)"),
    ("Cc1cc(C)c2[nH]c(=O)c(C(c3nnnn3Cc3ccc4c(c3)OCO4)N3CCC(C)CC3)cc2c1 (configuration not stated)", "86.7% (inactive)"),
    ("O=S(=O)(Cc1ccccc1)N1CCCCCC1", "101% (inactive)"),
    ("C=CCn1cnc2c(NCc3ccccc3)ncnc21", "97.1% (inactive)"),
    ("CC1Cc2cc(/C(O)=C3/C(=O)C(=O)N(CCN4CCOCC4)C3c3cccc(O)c3)ccc2O1 (configuration not stated)", "106% (inactive)"),
]

For the 2 molecules below, give their viability values.
1. Cc1ccccc1-n1c(=O)cc(NCc2ccc3c(c2)OCO3)[nH]c1=O
2. CCOc1cc(-c2nc(-c3ccccc3OC)no2)cc(OCC)c1OCC

["103% (inactive)", "92.5% (inactive)"]

----------
Experiment: reversal of MRP1-mediated doxorubicin resistance, pilot screen, H69AR cells, doxorubicin co-treatment (AID 601)
Conditions: H69AR cells + 2 uM doxorubicin, CellTiter-Glo, 72 h; at 10 µM; hits give high values
Assignment: determine reported differential viability (reversal) for the given compounds.
One number for each entry, in %.

Take each entry in turn and give its differential viability (reversal).
1. O=C(CSc1nc2ccccc2n1CC(=O)N1CCCC1)Nc1nccs1
2. O=C(NCc1cccs1)C1CC(=O)N(c2ccccc2)C1 (stereo unspecified)
3. Cc1ccc(-n2c(=O)[nH]c3c(C(N)=O)nc(CC(C)C)nc32)cc1
4. CCC(=O)c1ccc(OCC(O)CN2CCN(S(=O)(=O)N3CCCCC3)CC2)cc1 (stereo unspecified)
5. CN(C)c1nc(Nc2ccc(Cl)cc2)nc(OCC#N)n1
6. Nc1nc(C2C(=O)CCCC2=O)cs1

16.4
9.26
-18.6
18.1
-14.6
5.64

// each compound listed below needs its differential viability (reversal)
1. CCN(Cc1nc2ccccc2c(=O)[nH]1)Cc1cc(=O)oc2cc(C)c(C)cc12
2. O=C1CCc2nc3sc4c(c3c(=O)n2N1)CCCC4
3. CC(C)(C)NC(=O)COC(=O)c1ccc(O)cc1
4. Cc1cc(C)nc(N2CCCC(C(=O)Nc3ccc4c(c3)OCO4)C2)n1 (stereo unspecified)
5. O=C(NC1CCCCCC1)C1c2ccccc2C(=O)N1Cc1cccnc1 (stereo unspecified)

1. 21
2. 1.12
3. -3.93
4. 8.88
5. -12.5

Value sought for every listed compound: differential viability (reversal).
1. O=C(O)c1cc(=O)cc(C(=O)O)[nH]1
2. CN(C1CCCCC1)S(=O)(=O)c1ccc(NC(=O)c2ccco2)cc1
3. Cn1cnnc1SCC(=O)Nc1sc2c(c1C#N)CCCCC2

12.5
4.14
11.4

Please state differential viability (reversal) for every compound in the list that follows.
1. Cc1csc(SCc2nc3sc4c(c3c(=O)[nH]2)CCC4)n1
2. Cc1ccc2c(c1)NC(=O)C(CC(=O)NC1CCCCC1C)O2 (stereo unspecified)

1. 1.88
2. -3.58
